Hi there, I'd appreciate the recorded IC50 for every entry that follows.
Target: RNA-directed RNA polymerase L (Crimean-Congo hemorrhagic fever virus, UniProt Q6TQR6)
Sequence (Q6TQR6 whole entry, the tested form may be a part): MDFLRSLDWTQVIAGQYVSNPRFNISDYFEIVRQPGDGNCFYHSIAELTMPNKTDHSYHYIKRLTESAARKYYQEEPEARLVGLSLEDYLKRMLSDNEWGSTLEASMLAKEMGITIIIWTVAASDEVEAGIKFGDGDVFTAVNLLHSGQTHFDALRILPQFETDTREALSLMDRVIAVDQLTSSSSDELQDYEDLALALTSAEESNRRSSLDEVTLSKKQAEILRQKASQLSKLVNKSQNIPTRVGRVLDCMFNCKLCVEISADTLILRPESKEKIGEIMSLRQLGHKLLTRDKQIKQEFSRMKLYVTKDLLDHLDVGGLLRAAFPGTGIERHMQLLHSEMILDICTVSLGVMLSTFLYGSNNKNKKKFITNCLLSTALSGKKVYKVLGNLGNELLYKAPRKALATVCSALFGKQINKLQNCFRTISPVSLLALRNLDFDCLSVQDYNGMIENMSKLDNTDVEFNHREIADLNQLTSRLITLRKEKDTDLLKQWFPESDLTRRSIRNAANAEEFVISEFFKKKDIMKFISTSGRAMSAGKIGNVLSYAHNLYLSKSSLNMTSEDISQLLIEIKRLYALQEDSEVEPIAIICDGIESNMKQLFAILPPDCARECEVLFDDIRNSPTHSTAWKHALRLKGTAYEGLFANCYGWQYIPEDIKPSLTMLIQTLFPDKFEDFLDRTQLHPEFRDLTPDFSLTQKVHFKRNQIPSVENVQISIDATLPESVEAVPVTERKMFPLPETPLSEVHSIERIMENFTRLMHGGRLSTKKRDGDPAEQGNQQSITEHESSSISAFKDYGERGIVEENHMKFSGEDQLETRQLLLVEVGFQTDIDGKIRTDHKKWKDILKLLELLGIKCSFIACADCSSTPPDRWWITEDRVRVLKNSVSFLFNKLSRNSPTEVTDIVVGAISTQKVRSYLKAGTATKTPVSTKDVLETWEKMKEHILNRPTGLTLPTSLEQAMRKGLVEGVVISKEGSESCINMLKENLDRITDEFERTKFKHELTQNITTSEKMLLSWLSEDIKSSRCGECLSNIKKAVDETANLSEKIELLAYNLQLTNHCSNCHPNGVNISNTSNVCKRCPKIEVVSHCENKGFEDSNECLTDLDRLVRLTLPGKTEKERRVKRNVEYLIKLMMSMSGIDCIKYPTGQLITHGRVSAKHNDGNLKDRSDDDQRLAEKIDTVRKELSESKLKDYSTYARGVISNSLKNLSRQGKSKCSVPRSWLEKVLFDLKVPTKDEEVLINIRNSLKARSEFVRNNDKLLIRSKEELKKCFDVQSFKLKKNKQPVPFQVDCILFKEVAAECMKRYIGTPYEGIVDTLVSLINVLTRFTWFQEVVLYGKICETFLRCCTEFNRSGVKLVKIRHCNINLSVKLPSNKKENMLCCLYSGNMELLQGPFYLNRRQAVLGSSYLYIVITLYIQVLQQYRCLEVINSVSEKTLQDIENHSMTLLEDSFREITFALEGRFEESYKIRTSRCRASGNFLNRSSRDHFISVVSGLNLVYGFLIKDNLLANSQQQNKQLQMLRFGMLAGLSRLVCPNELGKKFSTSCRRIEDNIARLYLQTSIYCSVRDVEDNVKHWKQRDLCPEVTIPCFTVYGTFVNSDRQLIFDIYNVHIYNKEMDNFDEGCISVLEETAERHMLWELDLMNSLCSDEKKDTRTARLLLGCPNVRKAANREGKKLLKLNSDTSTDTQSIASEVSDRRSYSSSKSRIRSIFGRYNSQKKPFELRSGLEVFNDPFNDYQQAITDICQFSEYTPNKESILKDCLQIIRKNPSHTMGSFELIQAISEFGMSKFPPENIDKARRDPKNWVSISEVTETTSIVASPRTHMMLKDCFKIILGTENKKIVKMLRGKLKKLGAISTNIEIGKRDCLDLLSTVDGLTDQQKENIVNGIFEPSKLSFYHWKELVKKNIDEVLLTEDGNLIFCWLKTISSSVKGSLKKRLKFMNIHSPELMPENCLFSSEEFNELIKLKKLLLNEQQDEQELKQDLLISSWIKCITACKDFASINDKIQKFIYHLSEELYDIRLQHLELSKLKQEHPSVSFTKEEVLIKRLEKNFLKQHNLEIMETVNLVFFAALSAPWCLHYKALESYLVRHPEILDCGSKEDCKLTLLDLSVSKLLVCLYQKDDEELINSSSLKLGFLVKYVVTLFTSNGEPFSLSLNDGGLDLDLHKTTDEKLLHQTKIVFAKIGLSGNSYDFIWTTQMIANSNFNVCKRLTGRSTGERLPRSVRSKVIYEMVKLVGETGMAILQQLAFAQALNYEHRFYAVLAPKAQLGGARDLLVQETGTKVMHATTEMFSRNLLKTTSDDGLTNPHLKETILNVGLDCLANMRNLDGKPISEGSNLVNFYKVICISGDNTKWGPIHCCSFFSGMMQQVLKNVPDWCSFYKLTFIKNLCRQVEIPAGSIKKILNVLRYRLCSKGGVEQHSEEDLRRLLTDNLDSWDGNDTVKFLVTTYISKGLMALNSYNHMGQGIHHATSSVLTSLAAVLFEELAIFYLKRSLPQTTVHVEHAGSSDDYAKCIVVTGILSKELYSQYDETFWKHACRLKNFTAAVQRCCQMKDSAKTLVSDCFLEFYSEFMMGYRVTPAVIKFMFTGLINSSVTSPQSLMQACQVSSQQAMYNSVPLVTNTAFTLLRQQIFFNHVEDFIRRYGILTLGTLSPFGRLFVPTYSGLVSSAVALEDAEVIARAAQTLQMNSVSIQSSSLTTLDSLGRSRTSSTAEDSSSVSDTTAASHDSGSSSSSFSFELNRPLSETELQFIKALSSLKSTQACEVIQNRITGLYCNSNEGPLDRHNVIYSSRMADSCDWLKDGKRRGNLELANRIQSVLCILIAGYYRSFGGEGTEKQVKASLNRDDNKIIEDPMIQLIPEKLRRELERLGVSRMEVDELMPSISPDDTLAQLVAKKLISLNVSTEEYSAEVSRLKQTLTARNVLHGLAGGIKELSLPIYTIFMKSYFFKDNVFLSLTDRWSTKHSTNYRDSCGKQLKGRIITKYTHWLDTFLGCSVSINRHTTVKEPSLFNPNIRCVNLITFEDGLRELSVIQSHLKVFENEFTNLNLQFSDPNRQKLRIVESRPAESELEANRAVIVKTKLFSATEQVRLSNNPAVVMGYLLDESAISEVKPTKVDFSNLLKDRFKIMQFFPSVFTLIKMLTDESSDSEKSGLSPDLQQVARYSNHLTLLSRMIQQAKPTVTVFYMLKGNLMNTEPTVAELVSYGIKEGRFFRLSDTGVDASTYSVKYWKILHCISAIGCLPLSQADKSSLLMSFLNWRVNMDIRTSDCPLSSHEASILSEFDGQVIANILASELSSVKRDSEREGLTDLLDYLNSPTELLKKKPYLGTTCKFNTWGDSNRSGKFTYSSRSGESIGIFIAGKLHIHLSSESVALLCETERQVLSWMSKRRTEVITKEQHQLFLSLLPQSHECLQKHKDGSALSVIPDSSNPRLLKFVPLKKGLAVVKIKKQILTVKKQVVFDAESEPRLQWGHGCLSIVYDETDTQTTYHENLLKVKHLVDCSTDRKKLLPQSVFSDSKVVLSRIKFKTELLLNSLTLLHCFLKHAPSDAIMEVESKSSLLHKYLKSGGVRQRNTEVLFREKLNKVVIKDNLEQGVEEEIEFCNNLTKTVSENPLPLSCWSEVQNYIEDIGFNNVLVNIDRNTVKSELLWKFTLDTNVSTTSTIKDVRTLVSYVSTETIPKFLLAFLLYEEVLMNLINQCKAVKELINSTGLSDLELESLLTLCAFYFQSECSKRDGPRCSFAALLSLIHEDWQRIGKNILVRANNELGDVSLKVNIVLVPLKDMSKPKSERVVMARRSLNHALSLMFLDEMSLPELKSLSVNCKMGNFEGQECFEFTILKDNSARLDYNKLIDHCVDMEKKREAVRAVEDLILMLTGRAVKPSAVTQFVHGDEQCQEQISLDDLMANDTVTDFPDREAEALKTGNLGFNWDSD
Experiment: Inhibition of CCHF OTU (ovarian tumor) protease (1 to 169 residues) extracted from Escherichia coli BL21 (DE3) cells using ubiquitin rhodamine 110 as substrate incubated for 30 mins by fluorescence based SynergyH1 plate reader analysis

IC50 measured on FC(F)(F)c1ccc(-c2csc(Nc3ccc(-c4nnn[nH]4)nc3)n2)cc1 = > 100 µM

IC50 measured on FC(F)(F)c1ccc(-c2csc(Nc3ccc(-c4nnn[nH]4)c(C(F)(F)F)c3)n2)cc1 = 12.8 µM

IC50 measured on Cc1cc(NS(=O)(=O)c2ccc(Nc3nc(-c4ccc(O)cc4)cs3)cc2)no1 = > 100 µM

IC50 measured on Cc1cc(NS(=O)(=O)c2ccc(Nc3nc(-c4cccc(F)c4)cs3)cc2)no1 = > 100 µM

IC50 measured on Cc1cc(NS(=O)(=O)c2ccc(Nc3nc(-c4ccccc4C(F)(F)F)cs3)cc2)no1 = > 100 µM

IC50 measured on COc1cccc(-c2csc(Nc3ccc(S(=O)(=O)Nc4cc(C)on4)cc3)n2)c1 = > 100 µM

IC50 measured on Cc1cc(NS(=O)(=O)c2ccc(Nc3nc(-c4ccc(Cl)cc4)cs3)cc2)no1 = 62.9 µM

IC50 measured on Cc1cc(NS(=O)(=O)c2ccc(Nc3nc(-c4ccccn4)cs3)cc2)no1 = > 100 µM

IC50 measured on N#Cc1ccc(Nc2nc(-c3ccc(C(F)(F)F)cc3)cs2)cc1 = > 100 µM

IC50 measured on Cc1cc(NS(=O)(=O)c2ccc(Nc3nc(-c4ccc(C#N)cc4)cs3)cc2)no1 = > 100 µM

IC50 measured on COc1cc(-c2nnn[nH]2)ccc1Nc1nc(-c2ccc(C(F)(F)F)cc2)cs1 = 29.8 µM

IC50 measured on CN(c1ccc(-c2nnn[nH]2)cc1)c1nc(-c2ccc(C(F)(F)F)cc2)cs1 = 19 µM

IC50 measured on Cc1cc(NS(=O)(=O)c2ccc(Nc3nc(-c4ccccc4F)cs3)cc2)no1 = > 100 µM

IC50 measured on Cc1cc(-c2nnn[nH]2)ccc1Nc1nc(-c2ccc(C(F)(F)F)cc2)cs1 = 19.4 µM

IC50 measured on FC(F)(F)c1ccc(-c2csc(Nc3ccc(-c4nnn[nH]4)c4c3CCC4)n2)cc1 = 17.3 µM

IC50 measured on O=S(=O)(O)c1ccc(Nc2nc(-c3ccc(C(F)(F)F)cc3)cs2)cc1 = 41.8 µM

IC50 measured on Cc1cc(NS(=O)(=O)c2ccc(Nc3nc(-c4cccnc4)cs3)cc2)no1 = > 100 µM

IC50 measured on O=C(O)c1ccc(Nc2nc(-c3ccc(C(F)(F)F)cc3)cs2)cc1 = > 50 µM

IC50 measured on Cc1cc(NS(=O)(=O)c2ccc(Nc3nc(-c4ccc(OC(F)(F)F)cc4)cs3)cc2)no1 = > 100 µM

IC50 measured on COc1ccccc1-c1csc(Nc2ccc(S(=O)(=O)Nc3cc(C)on3)cc2)n1 = > 100 µM

IC50 measured on FC(F)(F)c1ccc(-c2coc(Nc3ccc(-c4nnn[nH]4)cc3)n2)cc1 = 18.2 µM

IC50 measured on Cc1cc(NS(=O)(=O)c2ccc(Nc3nc(-c4ccc(Br)cc4)cs3)cc2)no1 = 54.3 µM

IC50 measured on Cc1cc(NS(=O)(=O)c2ccc(Nc3nc(-c4ccc(F)cc4)cs3)cc2)no1 = 86 µM

IC50 measured on FC(F)(F)c1ccc(-c2csc(Nc3ccc(-c4nnn[nH]4)cc3)n2)cc1 = 16.7 µM

IC50 measured on O=C(O)Cc1ccc(Nc2nc(-c3ccc(C(F)(F)F)cc3)cs2)cc1 = > 100 µM

IC50 measured on Cc1cc(NS(=O)(=O)c2ccc(Nc3nc(-c4ccc(C(F)(F)F)cc4)cs3)cc2)no1 = 51 µM

IC50 measured on NS(=O)(=O)c1ccc(Nc2nc(-c3ccc(C(F)(F)F)cc3)cs2)cc1 = > 100 µM

IC50 measured on FC(F)(F)c1ccc(-c2csc(Nc3ccc(-n4cnnn4)cc3)n2)cc1 = > 100 µM

IC50 measured on FC(F)(F)c1ccc(-c2csc(Nc3ccc(-c4nnn[nH]4)cn3)n2)cc1 = 18.2 µM

IC50 measured on COc1ccc(-c2csc(Nc3ccc(S(=O)(=O)Nc4cc(C)on4)cc3)n2)cc1 = > 100 µM

IC50 measured on Cc1cc(Nc2nc(-c3ccc(C(F)(F)F)cc3)cs2)ccc1-c1nnn[nH]1 = 20 µM

IC50 measured on Cc1cc(NS(=O)(=O)c2ccc(Nc3nc(-c4ccccc4)cs3)cc2)no1 = > 100 µM

IC50 measured on Fc1cc(Nc2nc(-c3ccc(C(F)(F)F)cc3)cs2)ccc1-c1nnn[nH]1 = 10.7 µM

IC50 measured on Cc1cc(NS(=O)(=O)c2ccc(Nc3nc(-c4ccc(O)cc4O)cs3)cc2)no1 = 42.3 µM

IC50 measured on FC(F)(F)c1ccc(-c2ccnc(Nc3ccc(-c4nnn[nH]4)cc3)n2)cc1 = 38.4 µM

IC50 measured on Cc1cc(NS(=O)(=O)c2ccc(Nc3nc(-c4cccc(C(F)(F)F)c4)cs3)cc2)no1 = > 100 µM

IC50 measured on FC(F)(F)c1ccc(-c2csc(Nc3ccc(-c4nnn[nH]4)c(Cl)c3)n2)cc1 = 11.9 µM

IC50 measured on Cc1cc(NS(=O)(=O)c2ccc(Nc3nc(-c4ccccc4Cl)cs3)cc2)no1 = > 100 µM

* * *

Hi there, I'd appreciate the recorded pKi for every entry that follows.
Target: RNA-directed RNA polymerase L (Crimean-Congo hemorrhagic fever virus, UniProt Q6TQR6)
Assay: Inhibition of CCHF OTU (ovarian tumor) protease (1 to 169 residues) extracted from Escherichia coli BL21 (DE3) cells assessed as inhibition constant by fluorescence based SynergyH1 plate reader analysis
Hey, just a heads up that pKi is the negative log base 10 of the concentration in molar.

pKi measured on FC(F)(F)c1ccc(-c2csc(Nc3ccc(-c4nnn[nH]4)c4c3CCC4)n2)cc1 = 4.97

pKi measured on CN(c1ccc(-c2nnn[nH]2)cc1)c1nc(-c2ccc(C(F)(F)F)cc2)cs1 = 4.94

pKi measured on FC(F)(F)c1ccc(-c2csc(Nc3ccc(-c4nnn[nH]4)c(C(F)(F)F)c3)n2)cc1 = 5.11

pKi measured on FC(F)(F)c1ccc(-c2ccnc(Nc3ccc(-c4nnn[nH]4)cc3)n2)cc1 = 4.63

pKi measured on FC(F)(F)c1ccc(-c2csc(Nc3ccc(-c4nnn[nH]4)cc3)n2)cc1 = 4.99

pKi measured on Fc1cc(Nc2nc(-c3ccc(C(F)(F)F)cc3)cs2)ccc1-c1nnn[nH]1 = 5.18

pKi measured on Cc1cc(NS(=O)(=O)c2ccc(Nc3nc(-c4ccc(Br)cc4)cs3)cc2)no1 = 4.48

pKi measured on O=S(=O)(O)c1ccc(Nc2nc(-c3ccc(C(F)(F)F)cc3)cs2)cc1 = 4.59

pKi measured on Cc1cc(-c2nnn[nH]2)ccc1Nc1nc(-c2ccc(C(F)(F)F)cc2)cs1 = 4.92

pKi measured on Cc1cc(NS(=O)(=O)c2ccc(Nc3nc(-c4ccc(O)cc4O)cs3)cc2)no1 = 4.59

pKi measured on FC(F)(F)c1ccc(-c2coc(Nc3ccc(-c4nnn[nH]4)cc3)n2)cc1 = 4.95

pKi measured on Cc1cc(NS(=O)(=O)c2ccc(Nc3nc(-c4ccc(F)cc4)cs3)cc2)no1 = 4.28

pKi measured on Cc1cc(NS(=O)(=O)c2ccc(Nc3nc(-c4ccc(C(F)(F)F)cc4)cs3)cc2)no1 = 4.51

pKi measured on COc1cc(-c2nnn[nH]2)ccc1Nc1nc(-c2ccc(C(F)(F)F)cc2)cs1 = 4.74

pKi measured on Cc1cc(NS(=O)(=O)c2ccc(Nc3nc(-c4ccc(Cl)cc4)cs3)cc2)no1 = 4.41

pKi measured on FC(F)(F)c1ccc(-c2csc(Nc3ccc(-c4nnn[nH]4)c(Cl)c3)n2)cc1 = 5.14

pKi measured on FC(F)(F)c1ccc(-c2csc(Nc3ccc(-c4nnn[nH]4)cn3)n2)cc1 = 4.95

pKi measured on Cc1cc(Nc2nc(-c3ccc(C(F)(F)F)cc3)cs2)ccc1-c1nnn[nH]1 = 4.91
